# tested.system: Tyrosine-protein kinase TXK (Homo sapiens);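 note: each listed value is a mean percent inhibition of TXK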
# recorded.conditions: at 0.1 µM
metric: inhibition (%)

Fc1ccc(-c2ncn(C3CCNCC3)c2-c2ccnc(Oc3ccccc3)n2)cc1 | -5.33
CCn1c(-c2nonc2N)nc2c(C#CC(C)(C)O)ncc(OC[C@@H]3CCCN3)c21 | -0.98
COc1cc2c(cc1Nc1nc(Nc3ccsc3C(N)=O)c3cc[nH]c3n1)N(C(=O)CN(C)C)CCC2 | -2.39
COc1cccc(COc2cc(-n3cnc4ccccc43)sc2C(N)=O)c1 | -1.73
CCn1c(-c2nonc2N)nc2c(C#CC(C)(C)O)ncc(OCC3CCNCC3)c21 | -1.16
CCn1c(-c2nonc2N)nc2c(C#CC(C)(C)O)nc(O[C@@H](CN)c3ccccc3)cc21 | 2.06
COc1cc(C=NNc2ncnc3c2cnn3Cc2ccccc2)ccc1O | 1.55
NC(=O)c1sc(-n2cnc3cc(C(F)(F)F)ccc32)cc1OCc1ccccc1Br | 1.4

* * *

# tested.system: Tyrosine-protein kinase FRK (Homo sapiens);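 note: values are mean inhibition of PTK5 (FRK) kinase activity from the GSK PKIS screening set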
# recorded.conditions: at 0.1 µM
Form field: inhibition (one value per entry).
metric: inhibition (%)

NS(=O)(=O)c1ccc(N/C=C2\C(=O)Nc3ccc4ncsc4c32)cc1 | 2.34
Cc1cc(-c2ccco2)cc(C)c1/C=C/c1cncc(-c2nn[nH]n2)c1 | -0.44
CCn1c(-c2nonc2N)nc2c(C#CC(C)(C)O)ncc(OCC3CCNCC3)c21 | 1.13
CCn1c(-c2nonc2N)nc2c(C#CC(C)(C)O)nc(O[C@@H](CN)c3ccccc3)cc21 | -0.39
CCn1c(-c2nonc2N)nc2c(C#CCN)ncc(OCCCN)c21 | -0.39
COc1cc2c(cc1Nc1nc(Nc3ccsc3C(N)=O)c3cc[nH]c3n1)N(C(=O)CN(C)C)CCC2 | 1.91
NS(=O)(=O)c1ccc(-c2ccc3c(NC(=O)C4CC4)n[nH]c3c2)cc1 | 1.62
COc1cccc(COc2cc(-n3cnc4ccccc43)sc2C(N)=O)c1 | 0

* * *

# tested.system: Tyrosine-protein kinase JAK1 (Homo sapiens) (UniProt P23458);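 note: each value is a mean inhibition of JAK1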
# Sequence (P23458 whole entry): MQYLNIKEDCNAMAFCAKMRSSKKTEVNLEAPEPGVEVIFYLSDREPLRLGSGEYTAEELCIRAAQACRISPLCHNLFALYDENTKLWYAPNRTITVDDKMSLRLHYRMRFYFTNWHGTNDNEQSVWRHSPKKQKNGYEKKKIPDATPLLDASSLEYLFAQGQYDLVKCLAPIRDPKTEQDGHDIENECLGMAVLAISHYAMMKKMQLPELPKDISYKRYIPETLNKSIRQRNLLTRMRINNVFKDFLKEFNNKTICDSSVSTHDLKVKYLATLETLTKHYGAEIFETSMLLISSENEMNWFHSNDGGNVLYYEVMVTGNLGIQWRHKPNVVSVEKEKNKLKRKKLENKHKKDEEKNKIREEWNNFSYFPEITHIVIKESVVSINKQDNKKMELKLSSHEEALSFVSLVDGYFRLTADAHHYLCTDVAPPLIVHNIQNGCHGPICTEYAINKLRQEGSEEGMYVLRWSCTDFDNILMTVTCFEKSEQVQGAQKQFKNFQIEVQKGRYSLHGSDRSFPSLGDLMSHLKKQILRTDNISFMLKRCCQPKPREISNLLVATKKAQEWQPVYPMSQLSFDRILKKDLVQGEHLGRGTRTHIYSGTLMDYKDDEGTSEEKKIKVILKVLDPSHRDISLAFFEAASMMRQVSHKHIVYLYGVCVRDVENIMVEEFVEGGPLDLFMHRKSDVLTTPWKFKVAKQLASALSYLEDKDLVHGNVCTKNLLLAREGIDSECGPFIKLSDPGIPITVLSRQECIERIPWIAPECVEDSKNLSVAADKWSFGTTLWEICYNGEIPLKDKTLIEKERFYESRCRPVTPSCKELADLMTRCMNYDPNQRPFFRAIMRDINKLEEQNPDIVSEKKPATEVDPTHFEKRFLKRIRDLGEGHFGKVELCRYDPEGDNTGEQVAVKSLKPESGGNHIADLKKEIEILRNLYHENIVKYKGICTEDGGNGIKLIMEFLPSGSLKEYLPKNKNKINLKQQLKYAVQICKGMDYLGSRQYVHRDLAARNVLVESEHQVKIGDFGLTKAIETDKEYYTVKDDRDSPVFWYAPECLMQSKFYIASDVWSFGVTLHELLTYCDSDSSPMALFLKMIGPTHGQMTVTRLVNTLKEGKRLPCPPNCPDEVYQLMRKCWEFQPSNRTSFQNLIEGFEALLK
# recorded.conditions: at 1 µM
Entry flag: 1 (yes) if inhibition reaches 10%; 0 (no) if it does not.

NS(=O)(=O)c1ccc(N/C=C2\C(=O)Nc3ccc4ncsc4c32)cc1 | 1 (yes)
CCn1c(-c2nonc2N)nc2c(C#CC(C)(C)O)nc(O[C@@H](CN)c3ccccc3)cc21 | 0 (no)
CCn1c(-c2nonc2N)nc2c(C#CC(C)(C)O)ncc(OC[C@@H]3CCCN3)c21 | 0 (no)
CCn1c(-c2nonc2N)nc2c(C#CCN)ncc(OCCCN)c21 | 1 (yes)
COc1cc2c(cc1Nc1nc(Nc3ccsc3C(N)=O)c3cc[nH]c3n1)N(C(=O)CN(C)C)CCC2 | 0 (no)

* * *

# tested.system: Cyclin-dependent kinase 5 (Homo sapiens) (UniProt Q00535);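 note: enzyme tested as the CDK5/p35 complex, values are mean percent inhibition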
# Sequence (Q00535 whole entry, looked up): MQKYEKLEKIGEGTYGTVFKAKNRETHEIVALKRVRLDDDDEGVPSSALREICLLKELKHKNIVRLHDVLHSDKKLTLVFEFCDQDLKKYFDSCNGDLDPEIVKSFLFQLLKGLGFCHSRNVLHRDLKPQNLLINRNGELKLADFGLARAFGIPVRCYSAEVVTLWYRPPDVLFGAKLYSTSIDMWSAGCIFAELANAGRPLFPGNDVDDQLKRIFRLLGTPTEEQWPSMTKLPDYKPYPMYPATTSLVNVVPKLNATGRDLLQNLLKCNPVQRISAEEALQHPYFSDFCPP
# recorded.conditions: at 0.1 µM
metric: inhibition (%)

CCn1c(-c2nonc2N)nc2c(C#CC(C)(C)O)ncc(OCC3CCNCC3)c21 | 1.05
NS(=O)(=O)c1ccc(N/C=C2\C(=O)Nc3ccc4ncsc4c32)cc1 | 60.7
Nc1nonc1-c1nc2cnccc2n1C1CCCCC1 | 5
Cc1cc(-c2ccco2)cc(C)c1/C=C/c1cncc(-c2nn[nH]n2)c1 | 0.53
COc1cc2c(cc1Nc1nc(Nc3ccsc3C(N)=O)c3cc[nH]c3n1)N(C(=O)CN(C)C)CCC2 | 0.94
COc1cccc(-n2ncc3c(N/N=C/c4ccncc4)ncnc32)c1 | 39.7
COc1cccc(COc2cc(-n3cnc4ccccc43)sc2C(N)=O)c1 | -0.51

* * *

# tested.system: cGMP-dependent protein kinase 2 (Homo sapiens) (UniProt Q13237);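 note: mean inhibition of PRKG2 from the GSK PKIS screen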
# Sequence (Q13237 whole entry): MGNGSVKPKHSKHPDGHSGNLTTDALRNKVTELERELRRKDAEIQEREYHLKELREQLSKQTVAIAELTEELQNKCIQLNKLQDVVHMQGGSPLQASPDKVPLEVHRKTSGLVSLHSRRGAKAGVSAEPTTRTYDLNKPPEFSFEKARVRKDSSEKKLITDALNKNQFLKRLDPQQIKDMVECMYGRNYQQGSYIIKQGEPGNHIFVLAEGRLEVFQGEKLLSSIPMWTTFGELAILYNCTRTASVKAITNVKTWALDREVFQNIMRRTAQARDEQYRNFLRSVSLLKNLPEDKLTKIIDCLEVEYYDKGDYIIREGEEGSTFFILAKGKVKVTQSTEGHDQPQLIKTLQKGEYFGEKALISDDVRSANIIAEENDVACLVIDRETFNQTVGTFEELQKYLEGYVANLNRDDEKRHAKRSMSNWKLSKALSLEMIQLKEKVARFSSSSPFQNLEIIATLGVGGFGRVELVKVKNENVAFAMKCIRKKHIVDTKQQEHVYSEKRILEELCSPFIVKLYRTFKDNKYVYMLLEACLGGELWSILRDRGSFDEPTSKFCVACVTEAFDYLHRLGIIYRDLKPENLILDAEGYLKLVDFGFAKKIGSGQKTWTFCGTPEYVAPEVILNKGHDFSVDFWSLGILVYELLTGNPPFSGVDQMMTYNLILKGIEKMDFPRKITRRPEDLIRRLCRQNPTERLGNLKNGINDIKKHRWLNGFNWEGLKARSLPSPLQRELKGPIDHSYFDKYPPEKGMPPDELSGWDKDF
# recorded.conditions: at 1 µM
metric: inhibition (%)

NS(=O)(=O)c1ccc(-c2ccc3c(NC(=O)C4CC4)n[nH]c3c2)cc1 | 3.29
COc1cccc(-n2ncc3c(N/N=C/c4ccncc4)ncnc32)c1 | 6.05
CCn1c(-c2nonc2N)nc2c(C#CC(C)(C)O)ncc(OCC3CCNCC3)c21 | 70.1
CCn1c(-c2nonc2N)nc2c(C#CC(C)(C)O)ncc(OC[C@@H]3CCCN3)c21 | 76.5
COc1cc2c(cc1Nc1nc(Nc3ccsc3C(N)=O)c3cc[nH]c3n1)N(C(=O)CN(C)C)CCC2 | 1.58
CCn1c(-c2nonc2N)nc2c(C#CCN)ncc(OCCCN)c21 | 74.6
NC(=O)c1sc(-n2cnc3cc(C(F)(F)F)ccc32)cc1OCc1ccccc1Br | 1.01
Cc1cc(-c2ccco2)cc(C)c1/C=C/c1cncc(-c2nn[nH]n2)c1 | -1.21

* * *

# tested.system: MAP kinase-interacting serine/threonine-protein kinase 1 (Homo sapiens);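 note: each value is an averaged percent inhibition of MKNK1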
# recorded.conditions: at 1 µM
Decide using inhibition: a value greater than or equal to 5% is Fulfilled, a smaller one is Not fulfilled.

CCn1c(-c2nonc2N)nc2c(C#CCN)ncc(OCCCN)c21 | Fulfilled
CCn1c(-c2nonc2N)nc2c(C#CC(C)(C)O)ncc(OC[C@@H]3CCCN3)c21 | Not fulfilled
COc1cc(C=NNc2ncnc3c2cnn3Cc2ccccc2)ccc1O | Not fulfilled
Fc1ccc(-c2ncn(C3CCNCC3)c2-c2ccnc(Oc3ccccc3)n2)cc1 | Not fulfilled
COc1cc2c(cc1Nc1nc(Nc3ccsc3C(N)=O)c3cc[nH]c3n1)N(C(=O)CN(C)C)CCC2 | Not fulfilled
CCn1c(-c2nonc2N)nc2c(C#CC(C)(C)O)ncc(OCC3CCNCC3)c21 | Fulfilled
Cc1cc(-c2ccco2)cc(C)c1/C=C/c1cncc(-c2nn[nH]n2)c1 | Fulfilled
CCn1c(-c2nonc2N)nc2c(C#CC(C)(C)O)nc(O[C@@H](CN)c3ccccc3)cc21 | Fulfilled
Nc1nonc1-c1nc2cnccc2n1C1CCCCC1 | Not fulfilled
COc1cccc(-n2ncc3c(N/N=C/c4ccncc4)ncnc32)c1 | Fulfilled

* * *

# tested.system: Serine/threonine-protein kinase 10 (Homo sapiens);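 note: reported value is the mean percent inhibition of LOK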
# recorded.conditions: at 1 µM
Label rule, in plain words: inhibition of 20% and up is YES, under 20% is NO.

COc1cccc(-n2ncc3c(N/N=C/c4ccncc4)ncnc32)c1 | YES
NS(=O)(=O)c1ccc(-c2ccc3c(NC(=O)C4CC4)n[nH]c3c2)cc1 | NO
COc1cc(C=NNc2ncnc3c2cnn3Cc2ccccc2)ccc1O | NO
CCn1c(-c2nonc2N)nc2c(C#CC(C)(C)O)ncc(OCC3CCNCC3)c21 | NO
NS(=O)(=O)c1ccc(N/C=C2\C(=O)Nc3ccc4ncsc4c32)cc1 | NO
COc1cc2c(cc1Nc1nc(Nc3ccsc3C(N)=O)c3cc[nH]c3n1)N(C(=O)CN(C)C)CCC2 | NO

* * *

# tested.system: Serine/threonine-protein kinase Nek2 (Homo sapiens) (UniProt P51955);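 note: mean inhibition value from the GSK PKIS kinase screening panel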
# Sequence (whole entry): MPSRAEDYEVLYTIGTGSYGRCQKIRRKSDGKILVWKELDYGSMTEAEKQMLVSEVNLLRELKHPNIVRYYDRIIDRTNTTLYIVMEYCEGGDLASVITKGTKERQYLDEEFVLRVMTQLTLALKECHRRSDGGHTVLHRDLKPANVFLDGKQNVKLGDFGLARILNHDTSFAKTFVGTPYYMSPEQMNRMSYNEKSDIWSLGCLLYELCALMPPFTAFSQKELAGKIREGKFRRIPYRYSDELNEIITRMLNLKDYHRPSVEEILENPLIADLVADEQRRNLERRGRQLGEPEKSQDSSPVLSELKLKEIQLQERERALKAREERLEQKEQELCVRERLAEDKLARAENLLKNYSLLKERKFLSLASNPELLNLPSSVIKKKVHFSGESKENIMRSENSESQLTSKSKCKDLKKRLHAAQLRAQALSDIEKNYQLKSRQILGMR
# recorded.conditions: at 0.1 µM
metric: inhibition (%)

CCn1c(-c2nonc2N)nc2c(C#CC(C)(C)O)ncc(OC[C@@H]3CCCN3)c21 | 0.12
CCn1c(-c2nonc2N)nc2c(C#CC(C)(C)O)nc(O[C@@H](CN)c3ccccc3)cc21 | 5.29
Nc1nonc1-c1nc2cnccc2n1C1CCCCC1 | -2.06
Fc1ccc(-c2ncn(C3CCNCC3)c2-c2ccnc(Oc3ccccc3)n2)cc1 | 3.29
NS(=O)(=O)c1ccc(-c2ccc3c(NC(=O)C4CC4)n[nH]c3c2)cc1 | 3.54
COc1cccc(-n2ncc3c(N/N=C/c4ccncc4)ncnc32)c1 | 5.11
COc1cc(C=NNc2ncnc3c2cnn3Cc2ccccc2)ccc1O | -5.42

* * *

# tested.system: Platelet-derived growth factor receptor alpha (Homo sapiens) (UniProt P16234);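 note: values are mean percent inhibition of PDGFRA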
# Sequence (P16234 whole entry): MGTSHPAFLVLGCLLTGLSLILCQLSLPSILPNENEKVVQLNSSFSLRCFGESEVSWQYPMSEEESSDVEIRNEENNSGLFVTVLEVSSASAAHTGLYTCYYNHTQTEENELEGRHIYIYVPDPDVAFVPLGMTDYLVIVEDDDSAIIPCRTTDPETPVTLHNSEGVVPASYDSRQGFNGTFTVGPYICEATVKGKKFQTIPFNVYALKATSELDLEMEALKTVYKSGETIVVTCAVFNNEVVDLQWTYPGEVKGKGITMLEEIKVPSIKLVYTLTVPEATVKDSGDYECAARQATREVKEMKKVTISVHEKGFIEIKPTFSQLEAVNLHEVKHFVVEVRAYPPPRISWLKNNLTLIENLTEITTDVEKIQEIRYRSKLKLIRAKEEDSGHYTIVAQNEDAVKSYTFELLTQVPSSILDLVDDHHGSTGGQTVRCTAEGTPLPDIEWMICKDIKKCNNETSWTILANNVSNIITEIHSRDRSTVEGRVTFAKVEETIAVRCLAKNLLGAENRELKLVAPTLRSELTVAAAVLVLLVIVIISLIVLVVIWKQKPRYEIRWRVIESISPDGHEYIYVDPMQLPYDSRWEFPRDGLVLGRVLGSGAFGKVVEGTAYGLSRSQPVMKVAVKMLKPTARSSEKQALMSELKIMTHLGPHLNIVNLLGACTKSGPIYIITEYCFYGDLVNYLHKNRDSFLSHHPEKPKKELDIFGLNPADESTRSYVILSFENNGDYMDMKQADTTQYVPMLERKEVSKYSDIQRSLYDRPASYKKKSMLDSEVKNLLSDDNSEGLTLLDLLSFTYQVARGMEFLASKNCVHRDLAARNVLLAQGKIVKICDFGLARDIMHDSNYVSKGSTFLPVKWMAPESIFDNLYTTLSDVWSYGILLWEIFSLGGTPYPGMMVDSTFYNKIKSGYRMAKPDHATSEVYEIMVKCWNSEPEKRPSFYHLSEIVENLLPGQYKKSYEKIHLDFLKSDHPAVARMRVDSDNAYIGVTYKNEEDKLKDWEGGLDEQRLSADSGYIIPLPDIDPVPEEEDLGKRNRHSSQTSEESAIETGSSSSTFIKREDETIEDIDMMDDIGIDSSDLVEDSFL
# recorded.conditions: at 1 µM
metric: inhibition (%)

COc1cccc(-n2ncc3c(N/N=C/c4ccncc4)ncnc32)c1 | 79.5
Cc1cc(-c2ccco2)cc(C)c1/C=C/c1cncc(-c2nn[nH]n2)c1 | 9.36
NS(=O)(=O)c1ccc(N/C=C2\C(=O)Nc3ccc4ncsc4c32)cc1 | 86.9
CCn1c(-c2nonc2N)nc2c(C#CC(C)(C)O)nc(O[C@@H](CN)c3ccccc3)cc21 | 70.5
NC(=O)c1sc(-n2cnc3cc(C(F)(F)F)ccc32)cc1OCc1ccccc1Br | 6.52
